System under test: human B1R receptor (CHO K1 cells stably transfected with the human B1R gene) (Homo sapiens)
Construct: expressed in transfected cells; host or cells: CHO K1 cells (Chinese hamster ovary), stably transfected
Sequence (P46663 1-353): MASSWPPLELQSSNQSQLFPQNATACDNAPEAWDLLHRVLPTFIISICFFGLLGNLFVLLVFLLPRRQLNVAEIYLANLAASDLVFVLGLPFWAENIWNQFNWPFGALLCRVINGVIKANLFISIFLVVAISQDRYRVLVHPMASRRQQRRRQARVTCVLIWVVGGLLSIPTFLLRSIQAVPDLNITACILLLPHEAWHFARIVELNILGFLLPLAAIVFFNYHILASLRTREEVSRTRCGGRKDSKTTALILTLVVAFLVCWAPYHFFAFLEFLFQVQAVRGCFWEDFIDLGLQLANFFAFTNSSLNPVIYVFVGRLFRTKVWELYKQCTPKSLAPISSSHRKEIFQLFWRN
Protocol summary: Functional study on the bradykinin receptor 1 (B1R), Ca2+ fluorescence (Fluo-4) FLIPR/Novostar assay, hB1R cells
Format: cell-based
Condition: CHO-K1, read-out: % Inhibition (h-B1R) at 10 μM
Measured inhibition at 10 µM values are reported for all entries that follow.
Quick note: unit goes after the number.

Compound | Property | Result
CN(C(=O)c1ccc2c(c1)C(NC(=O)c1sccc1Cl)CC2(C)C)C1CCN(c2ccncc2)CC1 (centres unmarked) [CC_H-20] | inhibition at 10 µM | 99%
CN(C(=O)c1ccc2c(c1)C(NC(=O)c1c(Cl)cccc1C(F)(F)F)CC2)C1CCN(c2ccncc2)CC1 (centres unmarked) [CC_H-137] | inhibition at 10 µM | 96%
CN(C(=O)c1ccc2c(c1)C(NC(=O)C1CCCCC1)CC2(C)C)C1CCN(c2ccncc2)CC1 (centres unmarked) [CC_H-14] | inhibition at 10 µM | 99%
Cc1cc(N2CCC(N(C)C(=O)c3ccc4c(c3)C(N(C)S(=O)(=O)c3c(Cl)cccc3C(F)(F)F)CC4)CC2)cc(C)n1 (centres unmarked) [CC_H-134] | inhibition at 10 µM | 100%
CN(C(=O)c1ccc2c(c1)C(NC(=O)c1cncnc1)CCC2)C1CCN(c2ccncc2)CC1 (centres unmarked) [CC_H-08] | inhibition at 10 µM | 99%
CN(C(=O)c1ccc2c(c1)C(NC(=O)c1ccccc1Cl)CC2(C)C)C1CCN(c2ccncc2)CC1 (centres unmarked) [CC_H-23] | inhibition at 10 µM | 99%
Cc1cc(N2CCC(N(C)C(=O)c3ccc4c(c3)C(N(C)C(=O)c3sccc3Cl)CC4)CC2)cc(C)n1 (centres unmarked) [CC_H-88] | inhibition at 10 µM | 100%

Consider the additional compound presented here.
Requested read-out: inhibition at 10 µM. Entry: Cc1cc(N2CCC(N(C)C(=O)c3ccc4c(c3)C(N(C)C(=O)c3c(C)cccc3C)CC4)CC2)cc(C)n1 (centres unmarked) [CC_H-91]
99%
